- Target entity: Gelatinase (MMP-2) (Homo sapiens, UniProt P08253)
- Assay overview: Gelatinase (MMP-2) inhibitory activity, fluorogenic peptide substrate cleavage
- Format: biochemical
- Condition description: read-out: MMP02 IC50
pIC50: −log10 of the molar value.
I would appreciate it if you labelled entries 1.0 when pIC50 is 5 or higher, otherwise 0.0.

Could you please find out whether N#Cc1ccc(C(=O)c2ccc(Cl)c(S(N)(=O)=O)c2)cc1 [Example 44] has pIC50 that meets 5 or exceeds it?
1.0

Hi team, for NS(=O)(=O)c1cc(C(=O)c2ccc(N3CCC(c4ccccc4)CC3)cc2)ccc1Cl [Example 85] , is the recorded pIC50 at or above 5?
1.0

Test whether the compound NS(=O)(=O)c1cc(C(=O)c2ccc3c(-c4ccc(-c5ccccc5)cc4)c[nH]c3c2)ccc1Cl [Example 126] records pIC50 of 5 or higher.
0.0

API: above_or_equal(metric=pIC50, cutoff=5) for item NS(=O)(=O)c1cc(C(=O)c2ccc3c(-c4ccnc(OCCN5CCOCC5)c4)c[nH]c3c2)ccc1Cl [Example 143]
1.0

Record NS(=O)(=O)c1cc(C(=O)c2ccc3c(-c4ccnc(Cl)c4)c[nH]c3c2)ccc1Cl [Example 136] ; criterion: pIC50 no lower than 5. Met?
0.0

Kindly determine if pIC50 recorded for Cc1cccc(-c2ccc(C(=O)c3ccc(Cl)c(S(N)(=O)=O)c3)cc2)c1 [Example 60] is above or exactly 5.
1.0

// inclusive: pIC50 at least 5? input: CCN(CC)c1ccc(C(=O)c2ccc(Cl)c(S(N)(=O)=O)c2)cc1 [Example 79]
1.0

====

- Target entity: Collagenase-3 (MMP-13) (Homo sapiens, UniProt P45452)
- Assay overview: Collagenase-3 (MMP-13) inhibitory activity, fluorogenic peptide substrate cleavage
- Format: biochemical
- Condition description: read-out: MMP13 IC50
Value type: IC50 (µM)
The figure you give is taken to be in µM; do not add the unit.

Reported IC50 ( NS(=O)(=O)c1cc(C(=O)c2ccc(O)cc2)ccc1Cl [Example 15] ) = 10

The molecule identified as "CN1C(=O)CCC2=C1Cc1cc(C(=O)c3ccc(Cl)c(S(N)(=O)=O)c3)ccc12" registered its IC50 at 0.069

The molecule "NS(=O)(=O)c1cc(C(=O)c2ccc3[nH]ccc3c2)ccc1Cl" showed IC50 equal to 15.3

molecule "NS(=O)(=O)c1cc(C(=O)c2ccc(-n3cccc3)cc2)ccc1Cl" , IC50 observed: 0.86

response.value for "NS(=O)(=O)c1cc(C(=O)c2ccc(-c3ccsc3)cc2)ccc1Cl" (field: IC50) = 7.06

====

- Target entity: Gelatinase (MMP-2) (Homo sapiens)
- Assay overview: Gelatinase (MMP-2) inhibitory activity, fluorogenic peptide substrate cleavage
- Assay type: biochemical
- Condition description: read-out: MMP02 IC50
Value type: pIC50
For clarity, pIC50 is expressed as the negative log10 of concentration in mol/L.

CC(=O)c1ccc(-c2c[nH]c3cc(C(=O)c4ccc(Cl)c(S(N)(=O)=O)c4)ccc23)cc1 : 4.90

# pIC50 (compound: "NS(=O)(=O)c1cc(C(=O)c2ccc(-c3cccc(Br)c3)cc2)ccc1Cl" ) is 4.99

Sample "Cc1n[nH]c2cc(C(=O)c3ccc(Cl)c(S(N)(=O)=O)c3)ccc12" ; pIC50 observed: 6.59

// NS(=O)(=O)c1cc(C(=O)c2ccc(Br)cc2)ccc1Cl [Example 22] : pIC50 value = 4.85

====

Measured pIC50 accompanies every entry in the list below.
- Target entity: Gelatinase (MMP-2) (Homo sapiens)
- Assay overview: Gelatinase (MMP-2) inhibitory activity, fluorogenic peptide substrate cleavage
- Format: biochemical
- Condition description: read-out: MMP02 IC50
As a rule, pIC50 stands for the negative log10 of the concentration, concentration in M.

Answered cases to consult:
NS(=O)(=O)c1cc(C(=O)c2ccc(N3CCCCC3)cc2)ccc1Cl : 6.06
COCCCc1cc(-c2c[nH]c3cc(C(=O)c4ccc(Cl)c(S(N)(=O)=O)c4)ccc23)ccn1 : 6.44

The measured pIC50 associated with "NS(=O)(=O)c1cc(C(=O)c2ccc(N3CCOCC3)cc2)ccc1Cl" reads 6.02

====

- Target entity: Gelatinase (MMP-2) (Homo sapiens)
- Assay overview: Gelatinase (MMP-2) inhibitory activity, fluorogenic peptide substrate cleavage
- Type: biochemical
- Condition description: read-out: MMP02 IC50
pIC50: −log10 of the molar value.
Value type: pIC50

NS(=O)(=O)c1cc(C(=O)c2ccc(-c3cccnc3)cc2)ccc1Cl : < 5.05

Just so you know, measured pIC50 for "CCOC(=O)N1CCc2[nH]c3ccc(C(=O)c4ccc(Cl)c(S(N)(=O)=O)c4)cc3c2C1" came out at 4.67

Memo: "COc1ccc(C(=O)c2ccc(Cl)c(S(N)(=O)=O)c2)c(OC)c1" , reported pIC50: < 4.52

====

- Target entity: Gelatinase (MMP-2) (Homo sapiens, UniProt P08253)
- Sequence (P08253 110-660): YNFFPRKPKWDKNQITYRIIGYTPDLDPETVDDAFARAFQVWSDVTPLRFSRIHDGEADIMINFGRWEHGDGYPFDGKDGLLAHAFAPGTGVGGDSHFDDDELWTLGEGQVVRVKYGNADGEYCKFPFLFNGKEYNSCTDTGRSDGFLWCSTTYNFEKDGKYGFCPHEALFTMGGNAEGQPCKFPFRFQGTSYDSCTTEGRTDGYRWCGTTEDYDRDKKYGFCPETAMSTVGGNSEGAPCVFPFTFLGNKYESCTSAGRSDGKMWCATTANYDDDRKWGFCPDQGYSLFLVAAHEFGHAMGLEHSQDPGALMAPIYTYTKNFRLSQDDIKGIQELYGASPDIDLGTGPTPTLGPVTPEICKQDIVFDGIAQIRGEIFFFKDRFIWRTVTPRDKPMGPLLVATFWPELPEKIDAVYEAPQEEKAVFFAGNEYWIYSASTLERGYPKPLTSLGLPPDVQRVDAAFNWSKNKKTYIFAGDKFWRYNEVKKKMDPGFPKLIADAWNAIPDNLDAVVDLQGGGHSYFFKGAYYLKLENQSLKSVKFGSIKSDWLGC
- Assay overview: Gelatinase (MMP-2) inhibitory activity, fluorogenic peptide substrate cleavage
- Type: biochemical
- Condition description: read-out: MMP02 IC50
- Procedure: Gelatinase (MMP-2) inhibitory activities can be determined as follows: Stock solutions of substrate (MCA-Lys-Pro-Leu-Gly-Leu-Dpa-Ala-Arg-NH2) are prepared in DMSO at a concentration of 1.4 mM. Stock solutions of inhibitors (0.03 μM-3 mM) are also prepared in DMSO. […] The fluorescence changes, as a result of substrate cleavage, are monitored using an excitation wavelength of 325 nm and an emission wavelength of 405 nm. […]
Measured pIC50, listed per entry for reference.
FYI, pIC50 means -log10 of a concentration in mol per litre.

Guide cases for pIC50, answers given:
NS(=O)(=O)c1cc(C(=O)c2ccc(-c3ccc(C(=O)O)cc3)cc2)ccc1Cl [Example 73] : 6.01
NS(=O)(=O)c1cc(C(=O)c2ccc3c(-c4cccnc4)c[nH]c3c2)ccc1Cl [Example 130] : 5.58

Lab note: Cc1cc(-c2c[nH]c3cc(C(=O)c4ccc(Cl)c(S(N)(=O)=O)c4)ccc23)ccn1 [Example 137] gave pIC50 of 5.46

pIC50 measured on NS(=O)(=O)c1cc(C(=O)c2ccc(C(=O)NCCc3ccccc3)cc2)ccc1Cl [Example 54] = 4.63

Value of pIC50 reported for the molecule COC(=O)c1ccc(-c2ccc(C(=O)c3ccc(Cl)c(S(N)(=O)=O)c3)cc2)cc1 [Example 74] is 6.03

The molecule listed as NS(=O)(=O)c1cc(C(=O)c2ccc3c(c2)CCC3)ccc1Cl [Example 94] shows pIC50 equal to 4.63

# molecule NS(=O)(=O)c1cc(C(=O)c2ccc3c(-c4ccc(F)cc4)c[nH]c3c2)ccc1Cl [Example 120] ; its pIC50 = 5.72

====

Quick list: pIC50 per entry.
- Target entity: Collagenase-3 (MMP-13) (Homo sapiens)
- Assay overview: Collagenase-3 (MMP-13) inhibitory activity, fluorogenic peptide substrate cleavage
- Type: biochemical
- Condition description: read-out: MMP13 IC50
Conceptually, pIC50 converts a concentration in mol/L into minus its log10.

Example cases with answers are listed next.
NS(=O)(=O)c1cc(C(=O)c2ccc(-c3ccc(C(F)(F)F)cc3)cc2)ccc1Cl : 6.08
Cc1cccc(-c2ccc(C(=O)c3ccc(Cl)c(S(N)(=O)=O)c3)cc2)c1 [Example 60] : 5.26
NS(=O)(=O)c1cc(C(=O)c2ccc3c(-c4ccc(F)cc4)c[nH]c3c2)ccc1Cl : 6.02

Field: next compound
The compound identified as "CC(C)(C)c1ccc(C(=O)c2ccc(Cl)c(S(N)(=O)=O)c2)cc1" registered its pIC50 at 4.98

Value source: patent US20130096105A1
